# TL1A Binding Level (Late) per entry
MEASUREMENT_TARGET: T1, human TL1A extracellular domain with N-terminal HIS and FLAG tag (human, UniProt O95150 72-251)
T1 construct: whole entry named. ~70 kDa fraction purified by gel filtration
T1 sequence: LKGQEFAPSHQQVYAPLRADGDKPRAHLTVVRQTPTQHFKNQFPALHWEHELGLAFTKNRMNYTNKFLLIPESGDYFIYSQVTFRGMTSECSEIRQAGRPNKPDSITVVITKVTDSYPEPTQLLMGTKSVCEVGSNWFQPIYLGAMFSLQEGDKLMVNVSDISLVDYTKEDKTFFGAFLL
METHOD_SUMMARY: SPR run 2; supernatant on Protein A; TL1A 10 ug/mL; timepoint 220
Procedure: 1.5. Antibody expression and antigen binding as determined by SPR. Using a CM5 sensor chip (GE Healthcare) Protein A (Pierce) was coupled to the chip surface using an amine coupling kit (GE Healthcare). Protein A was coupled on flow cell 1 and 2 (or alternatively 3 and 4) using a BIACORE® T200. […] At the end of injection of the supernatant or purified antibody the change in response units was measured. […] The response units were measured prior to the end of the dissociation phase. […]
Write the number in RU without appending the unit.

Use these answered entries as a reference point.
320-215 (antibody, human IgG1, name in Kabat numbering, V domains shown, human IgG1, lambda) VH: QVQLVQSGAEVKKPGASVKVSCKASGYTFTSYDINWVRQAPGQGLEWMGWLNPNSGNTGYAQKFQGRVTMTADRSTSTAYMELSSLRSEDTAVYYCAREVPETAAFEYWGQGTLVTVSS VL: QSVLTQPPSVSGAPGQRVTISCTSWSSDIGAGLGVHWYQQLPGTAPKLLIEGYYNRPSGVPDRFSGSKSGTSASLTITGLLPEDEGDYYCQSYDGTLSALFGGGTKLTVLG: 199
320-205 (antibody, human IgG1, name in Kabat numbering, V domains shown, human IgG1, lambda) VH: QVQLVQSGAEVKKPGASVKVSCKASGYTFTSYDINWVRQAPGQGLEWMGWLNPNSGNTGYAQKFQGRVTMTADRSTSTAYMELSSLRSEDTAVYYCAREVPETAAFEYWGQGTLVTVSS VL: QSVLTQPPSVSGAPGQRVTISCTKSSSDIGAGLGVHWYQQLPGTAPKLLIEGYYNRPSGVPDRFSGSKSGTSASLTITGLLPEDEGDYYCQSYDGTLSALFGGGTKLTVLG: 271

Here is the next item to consider.
Lookup: Form field: reported TL1A Binding Level (Late) of 320-211 (antibody, human IgG1, name in Kabat numbering, V domains shown, human IgG1, lambda) VH: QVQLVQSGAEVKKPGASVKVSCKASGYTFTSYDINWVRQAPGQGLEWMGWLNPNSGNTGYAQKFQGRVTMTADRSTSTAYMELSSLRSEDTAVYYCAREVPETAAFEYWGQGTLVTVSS VL: QSVLTQPPSVSGAPGQRVTISCTSDSSDIGAGLGVHWYQQLPGTAPKLLIEGYYNRPSGVPDRFSGSKSGTSASLTITGLLPEDEGDYYCQSYDGTLSALFGGGTKLTVLG
Found: 164

All figures here come from patent US20170081400A1.
